- target: T1, biotinylated Aβ1-40 peptide (biotinylated (N-biotinylated in Example 7))
- T1 construct: captured on streptavidin (SA) chip; also called Biotinylated Aβ peptide 1-40; Aβ1-40 on SA chip
- T1 sequence (peptide, as listed by the source): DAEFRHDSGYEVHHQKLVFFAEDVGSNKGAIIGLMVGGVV
- testDescription: SPR, Fab over Aβ1-40 on SA chip
We label by threshold. Values of koff strictly beneath 0.004 s⁻¹ are Criterion met. Values of 0.004 s⁻¹ and up are Criterion not met.

binder	label
9TL variant M8 Fab (Fab, V domains shown, Fab; human IgG2 CH1 and kappa CL) VH: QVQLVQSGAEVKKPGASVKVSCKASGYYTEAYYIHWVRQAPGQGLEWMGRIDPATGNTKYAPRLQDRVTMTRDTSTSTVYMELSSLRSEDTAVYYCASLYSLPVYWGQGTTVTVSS VL: DVVMTQSPLSLPVTLGQPASISCKSSQSLLYSDAKTYLNWFQQRPGQSPRRLIYQISRLDPGVPDRFSGSGSGTDFTLKISRVEAEDVGVYYCQQGTHYPVLFGQGTRLEIKR	Criterion not met
9TL variant M37 Fab (Fab, V domains shown, Fab; human IgG2 CH1 and kappa CL) VH: QVQLVQSGAEVKKPGASVKVSCKASGYYTEAYYIHWVRQAPGQGLEWMGRIDPATGNTKYAPRLQDRVTMTRDTSTSTVYMELSSLRSEDTAVYYCASLYSAPVYWGQGTTVTVSS VL: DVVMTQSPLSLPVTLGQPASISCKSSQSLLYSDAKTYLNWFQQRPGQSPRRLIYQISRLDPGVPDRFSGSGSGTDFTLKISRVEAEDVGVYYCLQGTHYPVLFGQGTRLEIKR	Criterion met
9TL variant M16 Fab (Fab, V domains shown, Fab; human IgG2 CH1 and kappa CL) VH: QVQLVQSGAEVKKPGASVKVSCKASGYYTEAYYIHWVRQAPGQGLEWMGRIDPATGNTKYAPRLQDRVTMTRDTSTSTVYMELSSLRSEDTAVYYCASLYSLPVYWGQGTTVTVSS VL: DVVMTQSPLSLPVTLGQPASISCKSSQSLLYSDAKTYLNWFQQRPGQSPRRLIYQISRLDPGVPDRFSGSGSGTDFTLKISRVEAEDVGVYYCLQGTHAPVLFGQGTRLEIKR	Criterion met

stdin: Does this binder meet the criterion koff < 0.004 s⁻¹? 9TL variant M50 Fab (Fab, V domains shown, Fab; human IgG2 CH1 and kappa CL) VH: QVQLVQSGAEVKKPGASVKVSCKASGYYTEAYYIHWVRQAPGQGLEWMGRIDPATGNTKYAPRLQDRVTMTRDTSTSTVYMELSSLRSEDTAVYYCASLYSLPFYWGQGTTVTVSS VL: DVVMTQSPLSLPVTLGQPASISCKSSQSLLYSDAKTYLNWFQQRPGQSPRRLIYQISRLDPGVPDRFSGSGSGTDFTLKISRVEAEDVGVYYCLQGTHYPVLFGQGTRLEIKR
stdout: Criterion not met
